What follows is a collection of IC50 values obtained with KDR (Homo sapiens, UniProt P35968).
Sequence (P35968 20-1356): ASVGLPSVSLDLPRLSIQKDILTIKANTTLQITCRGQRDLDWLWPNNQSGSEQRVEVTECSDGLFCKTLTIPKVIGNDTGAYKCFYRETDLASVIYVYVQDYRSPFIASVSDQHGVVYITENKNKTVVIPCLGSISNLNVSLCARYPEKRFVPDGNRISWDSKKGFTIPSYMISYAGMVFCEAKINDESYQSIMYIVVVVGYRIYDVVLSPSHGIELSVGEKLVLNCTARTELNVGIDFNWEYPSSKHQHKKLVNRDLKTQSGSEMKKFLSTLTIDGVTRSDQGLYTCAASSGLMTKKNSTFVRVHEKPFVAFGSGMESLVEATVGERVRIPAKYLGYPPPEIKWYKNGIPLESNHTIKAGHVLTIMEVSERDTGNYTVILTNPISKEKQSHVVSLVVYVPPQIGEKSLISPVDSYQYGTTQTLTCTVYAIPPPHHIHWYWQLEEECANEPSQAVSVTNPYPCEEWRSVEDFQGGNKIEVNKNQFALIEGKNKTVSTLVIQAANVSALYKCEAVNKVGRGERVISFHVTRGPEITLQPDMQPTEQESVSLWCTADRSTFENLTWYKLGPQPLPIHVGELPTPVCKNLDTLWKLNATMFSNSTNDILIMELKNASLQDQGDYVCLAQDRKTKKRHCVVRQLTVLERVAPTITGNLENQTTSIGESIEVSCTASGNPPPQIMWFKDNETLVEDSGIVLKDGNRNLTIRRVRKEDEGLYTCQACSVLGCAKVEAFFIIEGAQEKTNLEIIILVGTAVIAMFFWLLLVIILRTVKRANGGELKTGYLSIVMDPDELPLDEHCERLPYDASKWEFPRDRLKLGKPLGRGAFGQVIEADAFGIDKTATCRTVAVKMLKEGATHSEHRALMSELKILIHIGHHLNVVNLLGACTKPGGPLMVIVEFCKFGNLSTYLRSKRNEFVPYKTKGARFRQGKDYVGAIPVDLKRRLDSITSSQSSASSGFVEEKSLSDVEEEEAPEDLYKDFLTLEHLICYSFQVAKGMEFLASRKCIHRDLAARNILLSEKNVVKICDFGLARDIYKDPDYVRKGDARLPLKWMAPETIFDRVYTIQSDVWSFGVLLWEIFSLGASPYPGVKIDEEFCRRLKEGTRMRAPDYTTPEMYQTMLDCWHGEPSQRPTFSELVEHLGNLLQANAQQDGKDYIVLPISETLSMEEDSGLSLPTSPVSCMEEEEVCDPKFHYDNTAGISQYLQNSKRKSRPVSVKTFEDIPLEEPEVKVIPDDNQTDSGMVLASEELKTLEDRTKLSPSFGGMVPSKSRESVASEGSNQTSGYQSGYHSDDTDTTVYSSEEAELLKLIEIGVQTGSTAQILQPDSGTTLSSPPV

COMPOUND STRUCTURE: COc1cc2c(Nc3ccc(F)c(Cl)c3)ncnc2cc1OCCCN(C)C
IC50 / nM: 17.6

COMPOUND STRUCTURE: COc1cc2c(Nc3ccc(F)c(Cl)c3)ncnc2cc1OCCCCN(C)C
IC50 / nM: 15.9

COMPOUND STRUCTURE: COc1cc2c(Nc3ccc(Br)cc3F)ncnc2cc1OCCCN(C)C
IC50 / nM: 17.4

COMPOUND STRUCTURE: COc1cc2c(Nc3ccc(Br)cc3F)ncnc2cc1OCCCN1CCCC1
IC50 / nM: 10.6

----------
Test system: HCC827
Assay: In vitro cell experiment (MTT), HCC827
Type: cell-based
Conditions: 72 h, human non-small cell lung carcinoma (EGFR1 19 exon mutation)
Description: Cells in logarithmic growth phase were seeded at a certain density in a 96-well plate (200 μL/well). […] Finally the optical density (OD) of each sample was measured in a micro-plate reader at 550 nm. Cell inhibition rate was calculated according to the following formula: […] According to cell inhibition rates, IC50 was calculated by LOGIT method. The experiments were repeated twice and the data was expressed as means±SD.
Binary call on IC50 with cut-off 5 nM: strictly below means satisfied, and equality or higher means not satisfied.

COMPOUND: COc1cc2c(Nc3ccc(F)c(Cl)c3)ncnc2cc1OCc1cnc(C)s1
ASSIGNED LABEL: satisfied

COMPOUND: COc1cc2c(Nc3ccc(F)c(Cl)c3)ncnc2cc1OCCN1CCCC1
ASSIGNED LABEL: satisfied

COMPOUND: COc1cc2c(Nc3ccc(F)c(Cl)c3)ncnc2cc1OCCCn1ccnc1
ASSIGNED LABEL: satisfied

COMPOUND: COc1cc2c(Nc3ccc(Br)cc3F)ncnc2cc1OCCCN(C)C
ASSIGNED LABEL: satisfied

COMPOUND: COc1cc2c(Nc3ccc(Br)cc3F)ncnc2cc1OCc1csc(C)n1
ASSIGNED LABEL: not satisfied

COMPOUND: COc1cc2c(Nc3ccc(Br)cc3F)ncnc2cc1OCCCn1ccnc1
ASSIGNED LABEL: not satisfied

COMPOUND: CNC(=O)CCCCCOc1cc2ncnc(Nc3ccc(Br)cc3F)c2cc1OC
ASSIGNED LABEL: not satisfied

COMPOUND: COc1cc2c(Nc3ccc(Br)cc3F)ncnc2cc1OCC1CCN(C)CC1 [Vandetanib, reference compound]
ASSIGNED LABEL: not satisfied

COMPOUND: COc1cc2c(Nc3ccc(F)c(Cl)c3)ncnc2cc1OCCCCC(N)=O
ASSIGNED LABEL: satisfied

COMPOUND: COc1cc2c(Nc3ccc(F)c(Cl)c3)ncnc2cc1OCCCCCC(=O)N(C)C
ASSIGNED LABEL: satisfied

COMPOUND: COc1cc2c(Nc3ccc(F)c(Cl)c3)ncnc2cc1OCCCCN(C)C
ASSIGNED LABEL: satisfied

COMPOUND: COc1cc2c(Nc3ccc(Br)cc3F)ncnc2cc1OCCCCN(C)C
ASSIGNED LABEL: satisfied

COMPOUND: COc1cc2c(Nc3ccc(Br)cc3F)ncnc2cc1OCCn1ccnc1
ASSIGNED LABEL: not satisfied

COMPOUND: COc1cc2c(Nc3ccc(F)c(Cl)c3)ncnc2cc1OCCCN1CCCC1
ASSIGNED LABEL: satisfied

COMPOUND: COc1cc2c(Nc3ccc(F)c(Cl)c3)ncnc2cc1OCCCCN1CCCC1
ASSIGNED LABEL: satisfied

COMPOUND: COc1cc2c(Nc3ccc(Br)cc3F)ncnc2cc1OCCCCCC(=O)N(C)C
ASSIGNED LABEL: not satisfied
